Data provenance is patent US20260001914A1.

target: phosphorylation levels of ERK1/2 in AsPC-1 (homozygous KRAS-G12D) cells (Homo sapiens, UniProt P01116, G12D); test: Cellular phospho-ERK assay in AsPC-1 cells (Alpha Screen), assay medium without fetal bovine serum; conditions: phospho-ERK AlphaScreen, 18 h;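 note: signal taken as phospho-ERK over total ERK per well, both detected in one multiplex bead assay, EC50 from four-parameter logistic fit of dose-response curves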
Sequence (P01116 1-186 G12D): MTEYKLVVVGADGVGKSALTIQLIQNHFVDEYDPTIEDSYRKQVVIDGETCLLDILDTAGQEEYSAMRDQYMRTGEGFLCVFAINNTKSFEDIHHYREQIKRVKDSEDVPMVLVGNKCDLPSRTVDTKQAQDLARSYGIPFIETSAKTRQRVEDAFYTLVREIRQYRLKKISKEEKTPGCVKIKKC
pEC50: −log10 of the molar value. *1 amine or outer side, *2 acyl side, *3 side chain or, on linkers, in order; H or OH if unused. Where a SMILES comes first, the peptide text is derived from it. [ ]: non-standard residue; d: D form. NMeNva(5-imidazol-1-yl) = CN[C@@H](CCCn1ccnc1)C(=O)O; Ala(pyrimidin-5-yl) = N[C@@H](Cc1cncnc1)C(=O)O; NMe3Pal(5-F) = CN[C@@H](Cc1cncc(F)c1)C(=O)O; NMePhe(3-Me) = CN[C@@H](Cc1cccc(C)c1)C(=O)O; X11 = CC(C)(F)CC[C@H](N[*:1])C(=O)[*:2]; Nle(5,5-F2) = CC(F)(F)CC[C@H](N)C(=O)O; Ala(cPent) = N[C@@H](CC1CCCC1)C(=O)O; Phe(2-F) = N[C@@H](Cc1ccccc1F)C(=O)O; NMe3Pal = CN[C@@H](Cc1cccnc1)C(=O)O; X1 = O=C(C12CC(CN[*:1])(C1)C2)[*:2]; Ala(cPr) = N[C@@H](CC1CC1)C(=O)O; NMeF = CN[C@@H](Cc1ccccc1)C(=O)O; PhLac = O=C(O)[C@@H](O)Cc1ccccc1; X4 = O=C([C@H](CCCF)N[*:1])[*:2]; 3Pal = N[C@@H](Cc1cccnc1)C(=O)O; Cba = N[C@@H](CC1CCC1)C(=O)O; hLeu = CC(C)CC[C@H](N)C(=O)O; NMeA = CN[C@@H](C)C(=O)O; Nle = CCCC[C@H](N)C(=O)O
Readings of pEC50 for the listed compounds
TEST_READOUT: pEC50

COMPOUND	TEST_READOUT	INEQUALITY_SIGN	READING
Cc1cccc(C[C@H]2C(=O)NCC34CC(C3)(C4)C(=O)O[C@@H](Cc3ccccc3)C(=O)N(C)[C@@H](C)C(=O)N[C@@H](Cc3cncnc3)C(=O)N[C@@H](CC3CC3)C(=O)N[C@@H](Cc3ccccc3F)C(=O)N[C@@H](CCC(C)(C)F)C(=O)N2C)c1 [compound 274] (cyclo([Ala(cPr)][Phe(2-F)][X11][NMePhe(3-Me)][X1][PhLac][NMeA][Ala(pyrimidin-5-yl)]))	pEC50	=	6.22
CCCC[C@@H]1NC(=O)[C@H](Cc2cncnc2)NC(=O)[C@H](CCCn2ccnc2)N(C)C(=O)[C@H](Cc2ccccc2)OC(=O)C23CC(CNC(=O)[C@H](Cc4cccnc4)N(C)C(=O)[C@H](CCCC)NC(=O)[C@H](Cc4ccccc4F)NC1=O)(C2)C3 [compound 240] (cyclo([NMe3Pal][X1][PhLac][NMeNva(5-imidazol-1-yl)][Ala(pyrimidin-5-yl)][Nle][Phe(2-F)][Nle]))	pEC50	<	4.29
CC(C)CC[C@@H]1NC(=O)[C@H](Cc2ccccc2F)NC(=O)[C@H](CC2CCCC2)NC(=O)[C@H](Cc2cncnc2)NC(=O)[C@H](C)N(C)C(=O)[C@H](Cc2ccccc2)OC(=O)C23CC(CNC(=O)[C@H](Cc4ccccc4)N(C)C1=O)(C2)C3 [compound 135] (cyclo([Ala(cPent)][Phe(2-F)][hLeu][NMeF][X1][PhLac][NMeA][Ala(pyrimidin-5-yl)]))	pEC50	=	6.55
C[C@H]1C(=O)N[C@@H](Cc2cncnc2)C(=O)N[C@@H](CC2CC2)C(=O)N[C@@H](Cc2ccccc2F)C(=O)N[C@@H](CC2CC2)C(=O)N(C)[C@@H](Cc2ccccc2)C(=O)NCC23CC(C2)(C3)C(=O)O[C@@H](Cc2ccccc2)C(=O)N1C [compound 267] (cyclo([Ala(cPr)][NMeF][X1][PhLac][NMeA][Ala(pyrimidin-5-yl)][Ala(cPr)][Phe(2-F)]))	pEC50	=	5.04
CCCC[C@@H]1NC(=O)[C@H](Cc2ccccc2F)NC(=O)[C@H](CCCF)NC(=O)[C@H](Cc2cccnc2)NC(=O)[C@H](C)N(C)C(=O)[C@H](Cc2ccccc2)OC(=O)C23CC(CNC(=O)[C@H](Cc4cccnc4)N(C)C1=O)(C2)C3 [compound 120] (cyclo([3Pal][X4][Phe(2-F)][Nle][NMe3Pal][X1][PhLac][NMeA]))	pEC50	<	4.29
C[C@H]1C(=O)N[C@@H](Cc2cccnc2)C(=O)N[C@@H](CC2CCC2)C(=O)N[C@@H](Cc2ccccc2F)C(=O)N[C@@H](CCC(C)(F)F)C(=O)N(C)[C@@H](Cc2cncc(F)c2)C(=O)NCC23CC(C2)(C3)C(=O)O[C@@H](Cc2ccccc2)C(=O)N1C [compound 285] (cyclo([3Pal][Cba][Phe(2-F)][Nle(5,5-F2)][NMe3Pal(5-F)][X1][PhLac][NMeA]))	pEC50	=	5.24
